Listed next: entries and their corresponding melting point.

Worked examples follow.
CC(=O)c1ccc(N)c2c1OCCO2 : 135 to 136 °C
CCOC(=O)CC[C@H](NC(=O)c1ccc(C(C)=Cc2cnc3nc(N)nc(N)c3c2)cc1)C(=O)OCC : > 300 °C
N#Cc1cc(Cn2cncn2)ccc1-c1ccc(OS(N)(=O)=O)cc1 : 157 to 160 °C
COC(=O)C1(CCCN2CCN(c3ccccc3)CC2)Sc2cc(OC)ccc2OCC1=O (stereo not given) : 110 to 112 °C

# evaluate next
Ask: // melting point lookup, key: CCCCC(=O)Nc1c(C(=O)OC)cc(C)cc1[N+](=O)[O-]
Result: 59 to 60 °C

---

property label: melting point

Ask: Could you tell me which melting point is on file for N=C(NO)c1ccc2nc(N[C@@H]3CCc4ccccc43)ccc2c1 ?
Result: 236 °C

Ask: Need melting point, item CN(CCC1CCN(c2noc3cc(F)ccc23)CC1)C(=O)c1noc2ccccc12
Result: 94 to 97 °C

---

property label: melting point

CCC(=O)OC1(C)CCCC2C3C=CC(C3)C21 (centres undefined) : 30 °C
COC(=O)c1c(C)c(-c2cc(OC)c(Cl)cc2F)nn1C : 135 to 137 °C
NCc1cccc(Cn2ccc(OCc3ccc(F)cc3)c(Br)c2=O)c1 : 127 to 139 °C
COC(=O)C1=C2c3sccc3SC(Cl)CN2CC(c2ccccc2)=C1 (centres undefined) : 192 to 196 °C
O=C1NC(=O)C(S(=O)(=O)c2ccc(Br)cc2)S1 (centres undefined) : 156 to 158 °C
O=C(O)c1ccc(-c2ccc(C(=O)O)cn2)nc1 : > 400 °C
COc1ccc([C@@H]2O[C@H](CCC(=O)O)C(=O)N(Cc3ccccc3)c3ccccc32)cc1 (relative stereo) : 107 to 109 °C
CC(CC(=O)NCCc1ccc(C(=O)O)cc1)(c1ccccc1)c1ccccc1 : 211 °C

Moving on to the next molecule.
Ask: What value of melting point has been reported for the following molecule? CC(C)C[C@@H](CO)NC(=O)N1C(=O)C(OC(=O)N2CCN(c3ccncc3)CC2)(c2ccccc2OC(C)C)c2cc(Cl)ccc21 (some centres undefined)
Result: 160 to 164 °C

---

property label: melting point

Below: 3 compounds and their reported melting point.
Clc1ccc2c(c1)CCc1cccnc1C2=C1CCN(Cc2cccnc2)CC1 : 115 °C
O=Cc1cc(O)c(OCc2ccccc2)cc1O : 147 to 148 °C
CCCCCCCCCCCCCCCCCC(=O)NCC(C)(C)COC(=O)CCc1cc(C(C)(C)C)c(O)c(C(C)(C)C)c1 : 44 °C

Ask: Quick one: melting point for COc1cc(C=CC(=O)CSc2ccccc2)ccc1O ?
Result: 78 to 80 °C

Ask: Value lookup for melting point; key = CC(C)(C)OC(=O)NCC[C@H]1CC[C@H](CO)CC1
Result: 75 to 76 °C

Ask: Please report the recorded melting point for CCOC(=O)c1c2n(c3cc(N4CCN(Cc5oc(=O)oc5C)CC4)c(F)cc3c1=O)C(C)S2 (stereo not given) .
Result: 241 to 243 °C

Ask: Form field: reported melting point of CCCCS(=O)Cc1ccc(CCl)cc1 (stereo not given)
Result: 112 to 113 °C

Ask: Fill blank: measured melting point of the compound CN(O)C(=O)Nc1c(C(=O)c2cccc(Cl)c2)[nH]c2cc(Cl)ccc12 is ____.
Result: 205 to 206 °C

Ask: Which melting point is reported for this compound? CCCc1nn(-c2ccc(C(F)(F)F)cn2)cc1COc1ccc(CCC(=O)O)c(OC)c1
Result: 153 to 154 °C

Ask: Which melting point is reported for this compound? Cc1ccc(Cc2cnc(NCCCN(Cc3ccccc3)c3ccc(Br)cn3)[nH]c2=O)cn1
Result: 150 to 155 °C

All values here come from a melting point compilation (Tetko et al.; mined from patent text by program, amines drawn as free bases though some values may be those of a salt).
